Each entry below lists one item and its recorded Percent Effect value.
- Assay target: Sialic acid-binding Ig-like lectin 9 (Homo sapiens) (UniProt Q9Y336)
- Sequence (Q9Y336 whole entry): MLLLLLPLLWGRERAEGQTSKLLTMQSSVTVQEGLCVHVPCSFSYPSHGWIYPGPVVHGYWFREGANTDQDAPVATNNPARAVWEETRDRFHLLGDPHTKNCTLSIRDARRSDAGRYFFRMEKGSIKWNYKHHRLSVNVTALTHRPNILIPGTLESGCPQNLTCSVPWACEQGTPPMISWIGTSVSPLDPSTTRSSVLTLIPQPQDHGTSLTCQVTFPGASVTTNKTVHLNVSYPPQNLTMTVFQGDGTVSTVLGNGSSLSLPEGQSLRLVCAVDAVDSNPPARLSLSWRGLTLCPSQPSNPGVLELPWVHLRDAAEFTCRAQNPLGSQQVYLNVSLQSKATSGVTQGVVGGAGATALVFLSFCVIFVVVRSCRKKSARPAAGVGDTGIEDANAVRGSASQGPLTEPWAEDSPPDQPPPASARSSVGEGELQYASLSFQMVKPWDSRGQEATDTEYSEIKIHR
- Test name: Hs-Siglec9 ALPHAscreen SOP 20170721
- Set-up: scale not given: direction of the effect not stated beside the values
- Stated conditions: 10 µM

Molecule: CNC(=O)c1ccc(CN2CCC(N(C)Cc3noc(C)n3)C2)cc1 (stereo unspecified)
Percent Effect [%]: -3.54

Molecule: O=C(Nc1cnn(CCN2CCOCC2)c1)c1ccccc1O
Percent Effect [%]: 2.22

Molecule: CSCC(CCO)NC(=O)Nc1cc(Br)ccc1C (stereo unspecified)
Percent Effect [%]: 4.67

Molecule: CCOC(=O)CNC(=O)N1CCN(c2ncccn2)CC1
Percent Effect [%]: 6.61

Molecule: COCc1nc(C(=O)N2CCCC2c2noc(C(C)C)n2)cs1 (stereo unspecified)
Percent Effect [%]: -0.11

Molecule: CCc1nccn1C1CCCN(C(=O)c2cn3cccnc3n2)C1 (stereo unspecified)
Percent Effect [%]: 1.79
